Assay: Solubility of the compound in water at 1 mM
Assay type: physicochemical
Conditions: buffer, 1000 µM

smiles-notation	solubility
CC[C@H](C)[C@@H]1NC(=O)[C@@H]2CCCN2C(=O)[C@H](Cc2c[nH]c3ccccc23)NC(=O)[C@H](CCCNC(=N)N)N(C)C(=O)[C@@H](Cc2ccccc2)NC(=O)[C@H](Cc2cnc[nH]2)N(C)C(=O)[C@H]([C@@H](C)O)NC(=O)[C@@H]2CSSC[C@H](NC1=O)C(=O)N[C@@H](Cc1ccccc1)C(=O)N1CCC[C@H]1C(=O)N[C@@H](CC(=O)O)C(=O)NCC(=O)N[C@@H](CCCNC(=N)N)C(=O)N2	Soluble
CC[C@H](C)[C@@H]1NC(=O)[C@@H]2CCCN2C(=O)[C@@H]2CCCN2C(=O)[C@H]([C@@H](C)CC)NC(=O)[C@H](CO)NC(=O)[C@H](C)NC(=O)[C@H]([C@@H](C)O)NC(=O)[C@@H]2CSSC[C@H](NC1=O)C(=O)N(C)[C@@H](Cc1cnc[nH]1)C(=O)N[C@H](Cc1ccccc1)C(=O)N(C)[C@@H](CCCNC(=N)N)C(=O)N[C@@H](Cc1c[nH]c3ccccc13)C(=O)N[C@@H](CCCNC(=N)N)C(=O)N2	Soluble

###

Some compounds, each annotated with its measured Activity.
Target: Melanocyte-stimulating hormone receptor (Homo sapiens)
Test: Agonist activity at human MC1R expressed in low doxycyclin-treated HEK293 cell membranes assessed as increase in cAMP production after 45 mins by HTRF method
Assay type: functional, cell-based
attribute-measured: Activity (%)

smiles-notation	obs-value
CC[C@H](C)[C@@H]1NC(=O)[C@@H]2CCCN2C(=O)[C@H](Cc2c[nH]c3ccccc23)N(C)C(=O)[C@H](CCCNC(=N)N)N(C)C(=O)[C@@H](Cc2ccccc2)NC(=O)[C@H](Cc2cnc[nH]2)NC(=O)[C@H]([C@@H](C)O)NC(=O)[C@@H]2CSSC[C@H](NC1=O)C(=O)N[C@@H](Cc1ccccc1)C(=O)N1CCC[C@H]1C(=O)N[C@@H](CC(=O)O)C(=O)NCC(=O)N[C@@H](CCCNC(=N)N)C(=O)N2	100
CC[C@H](C)[C@@H]1NC(=O)[C@@H]2CCCN2C(=O)[C@@H]2CCCN2C(=O)[C@H]([C@@H](C)CC)NC(=O)[C@H](CO)NC(=O)[C@H](C)NC(=O)[C@H]([C@H](C)O)NC(=O)[C@@H]2CSSC[C@H](NC1=O)C(=O)N(C)[C@@H](Cc1cnc[nH]1)C(=O)N[C@H](Cc1ccccc1)C(=O)N(C)[C@@H](CCCNC(=N)N)C(=O)N[C@@H](Cc1c[nH]c3ccccc13)C(=O)N[C@@H](CCCNC(=N)N)C(=O)N2	100

###

Some compounds, each annotated with its measured inhibition.
Molecular target: Melanocyte-stimulating hormone receptor (Homo sapiens, UniProt Q01726)
Sequence (Q01726 whole entry, looked up, the tested form may be a part): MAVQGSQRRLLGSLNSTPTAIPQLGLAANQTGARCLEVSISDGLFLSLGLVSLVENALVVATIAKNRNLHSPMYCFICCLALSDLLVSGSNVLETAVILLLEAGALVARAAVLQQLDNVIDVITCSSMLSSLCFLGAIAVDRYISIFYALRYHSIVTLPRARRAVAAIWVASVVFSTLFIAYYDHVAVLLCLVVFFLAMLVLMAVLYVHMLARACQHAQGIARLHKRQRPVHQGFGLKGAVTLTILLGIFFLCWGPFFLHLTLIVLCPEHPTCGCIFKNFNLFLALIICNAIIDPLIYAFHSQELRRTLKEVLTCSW
Experiment: Displacement of [125I]-NDP-alpha-MSH from human MC1R LBD expressed in HEK293 cell membranes incubated for 16 to 23 hrs in dark by scintillation proximity assay
Set-up: concentration or dose not given beside the values
Settings: concentration not given here

smiles-notation	inhibition
CC[C@H](C)[C@@H]1NC(=O)[C@@H]2CCCN2C(=O)[C@@H]2CCCN2C(=O)[C@H]([C@@H](C)CC)NC(=O)[C@H](CO)NC(=O)[C@H](C)NC(=O)[C@H]([C@H](C)O)NC(=O)[C@@H]2CSSC[C@H](NC1=O)C(=O)N[C@@H](Cc1cnc[nH]1)C(=O)N[C@H](Cc1ccccc1)C(=O)N[C@@H](CCCNC(=N)N)C(=O)N[C@@H](Cc1c[nH]c3ccccc13)C(=O)N[C@@H](CCCNC(=N)N)C(=O)N2	100%
CC[C@H](C)[C@@H]1NC(=O)[C@@H]2CCCN2C(=O)[C@@H]2CCCN2C(=O)[C@H]([C@@H](C)CC)NC(=O)[C@H](CO)NC(=O)[C@H](C)NC(=O)[C@H]([C@H](C)O)NC(=O)[C@@H]2CSSC[C@H](NC1=O)C(=O)N(C)[C@@H](Cc1cnc[nH]1)C(=O)N[C@H](Cc1ccccc1)C(=O)N(C)[C@@H](CCCNC(=N)N)C(=O)N[C@@H](Cc1c[nH]c3ccccc13)C(=O)N[C@@H](CCCNC(=N)N)C(=O)N2	100%
CC[C@H](C)[C@@H]1NC(=O)[C@@H]2CCCN2C(=O)[C@@H]2CCCN2C(=O)[C@H]([C@@H](C)CC)NC(=O)[C@H](CO)NC(=O)[C@H](C)NC(=O)[C@H]([C@H](C)O)NC(=O)[C@@H]2CSSC[C@H](NC1=O)C(=O)N(C)[C@@H](Cc1cnc[nH]1)C(=O)N[C@H](Cc1ccccc1)C(=O)N(C)[C@@H](CCCNC(=N)N)C(=O)N(C)[C@@H](Cc1c[nH]c3ccccc13)C(=O)N[C@@H](CCCNC(=N)N)C(=O)N2	100%

###

Some compounds, each annotated with its measured inhibition.
Target: Melanocortin receptor 4 (Homo sapiens)
Sequence (P32245 whole entry, the tested form may be a part): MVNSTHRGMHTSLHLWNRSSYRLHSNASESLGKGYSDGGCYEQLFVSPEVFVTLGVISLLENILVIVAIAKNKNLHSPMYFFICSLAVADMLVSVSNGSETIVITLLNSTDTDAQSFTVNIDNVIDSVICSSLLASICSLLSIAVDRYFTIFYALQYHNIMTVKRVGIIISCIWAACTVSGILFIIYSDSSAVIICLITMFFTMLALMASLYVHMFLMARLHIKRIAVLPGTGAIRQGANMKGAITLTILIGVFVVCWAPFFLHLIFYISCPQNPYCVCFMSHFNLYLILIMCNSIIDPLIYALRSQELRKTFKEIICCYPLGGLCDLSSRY
Assay: Displacement of [125I]-NDP-alpha-MSH from human MC4R LBD expressed in HEK293 cell membranes incubated for 16 to 23 hrs in dark by scintillation proximity assay
Design: concentration or dose not given beside the values
Conditions: concentration not given here

smiles-notation	inhibition
CC[C@H](C)[C@@H]1NC(=O)[C@@H]2CCCN2C(=O)[C@@H]2CCCN2C(=O)[C@H]([C@@H](C)CC)NC(=O)[C@H](CO)NC(=O)[C@H](C)NC(=O)[C@H]([C@H](C)O)NC(=O)[C@@H]2CSSC[C@H](NC1=O)C(=O)N(C)[C@@H](Cc1cnc[nH]1)C(=O)N[C@H](Cc1ccccc1)C(=O)N(C)[C@@H](CCCNC(=N)N)C(=O)N[C@@H](Cc1c[nH]c3ccccc13)C(=O)N[C@@H](CCCNC(=N)N)C(=O)N2	100%
CC[C@H](C)[C@@H]1NC(=O)[C@@H]2CCCN2C(=O)[C@H](Cc2c[nH]c3ccccc23)N(C)C(=O)[C@H](CCCNC(=N)N)NC(=O)[C@@H](Cc2ccccc2)NC(=O)[C@H](Cc2cnc[nH]2)N(C)C(=O)[C@H]([C@@H](C)O)NC(=O)[C@@H]2CSSC[C@H](NC1=O)C(=O)N[C@@H](Cc1ccccc1)C(=O)N1CCC[C@H]1C(=O)N[C@@H](CC(=O)O)C(=O)NCC(=O)N[C@@H](CCCNC(=N)N)C(=O)N2	100%
CC[C@H](C)[C@@H]1NC(=O)[C@@H]2CCCN2C(=O)[C@@H]2CCCN2C(=O)[C@H]([C@@H](C)CC)NC(=O)[C@H](CO)NC(=O)[C@H](C)NC(=O)[C@H]([C@H](C)O)NC(=O)[C@@H]2CSSC[C@H](NC1=O)C(=O)N(C)[C@@H](Cc1cnc[nH]1)C(=O)N[C@H](Cc1ccccc1)C(=O)N(C)[C@@H](CCCNC(=N)N)C(=O)N(C)[C@@H](Cc1c[nH]c3ccccc13)C(=O)N[C@@H](CCCNC(=N)N)C(=O)N2	100%

###

Some compounds, each annotated with its measured inhibition.
Molecular target: Melanocortin receptor 4 (Homo sapiens)
Experiment: Displacement of [125I]-NDP-alpha-MSH from human MC4R LBD expressed in HEK293 cell membranes incubated for 16 to 23 hrs in dark by scintillation proximity assay
Parameters: concentration or dose not given beside the values
Conditions: concentration not given here
attribute-measured: inhibition (%)

smiles-notation	attribute-measured	obs-value
CC[C@H](C)[C@@H]1NC(=O)[C@@H]2CCCN2C(=O)[C@@H]2CCCN2C(=O)[C@H]([C@@H](C)CC)NC(=O)[C@H](CO)NC(=O)[C@H](C)NC(=O)[C@H]([C@H](C)O)NC(=O)[C@@H]2CSSC[C@H](NC1=O)C(=O)N[C@@H](Cc1cnc[nH]1)C(=O)N[C@H](Cc1ccccc1)C(=O)N(C)[C@@H](CCCNC(=N)N)C(=O)N[C@@H](Cc1c[nH]c3ccccc13)C(=O)N[C@@H](CCCNC(=N)N)C(=O)N2	inhibition	100
CC[C@H](C)[C@@H]1NC(=O)[C@@H]2CCCN2C(=O)[C@H](Cc2c[nH]c3ccccc23)N(C)C(=O)[C@H](CCCNC(=N)N)N(C)C(=O)[C@@H](Cc2ccccc2)NC(=O)[C@H](Cc2cnc[nH]2)N(C)C(=O)[C@H]([C@@H](C)O)NC(=O)[C@@H]2CSSC[C@H](NC1=O)C(=O)N[C@@H](Cc1ccccc1)C(=O)N1CCC[C@H]1C(=O)N[C@@H](CC(=O)O)C(=O)NCC(=O)N[C@@H](CCCNC(=N)N)C(=O)N2	inhibition	100
CC[C@H](C)[C@@H]1NC(=O)[C@@H]2CCCN2C(=O)[C@H](Cc2c[nH]c3ccccc23)NC(=O)[C@H](CCCNC(=N)N)N(C)C(=O)[C@@H](Cc2ccccc2)NC(=O)[C@H](Cc2cnc[nH]2)N(C)C(=O)[C@H]([C@@H](C)O)NC(=O)[C@@H]2CSSC[C@H](NC1=O)C(=O)N[C@@H](Cc1ccccc1)C(=O)N1CCC[C@H]1C(=O)N[C@@H](CC(=O)O)C(=O)NCC(=O)N[C@@H](CCCNC(=N)N)C(=O)N2	inhibition	100
CC[C@H](C)[C@@H]1NC(=O)[C@@H]2CCCN2C(=O)[C@@H]2CCCN2C(=O)[C@H]([C@@H](C)CC)NC(=O)[C@H](CO)NC(=O)[C@H](C)NC(=O)[C@H]([C@H](C)O)NC(=O)[C@@H]2CSSC[C@H](NC1=O)C(=O)N[C@@H](Cc1cnc[nH]1)C(=O)N[C@H](Cc1ccccc1)C(=O)N[C@@H](CCCNC(=N)N)C(=O)N(C)[C@@H](Cc1c[nH]c3ccccc13)C(=O)N[C@@H](CCCNC(=N)N)C(=O)N2	inhibition	100

Values were extracted from ChEMBL document CHEMBL4043303.
